Measured values drawn from patent US20260274955A1 for this set.

target: T1, Anti-CD28 Fab (SEQ ID NOs: 202, 203); assay: phage ELISA on captured biotinylated Fab;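 further: wells preblocked with or without CD28 antigen, then clonal phage supernatant added briefly, washed, and bound phage read out by ELISA using HRP-linked anti-M13 antibody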
T1 construct: biotinylated and captured on neutravidin coated plates in the phage ELISA
T1 sequence (VH, as listed by the source, chain 1 of 2): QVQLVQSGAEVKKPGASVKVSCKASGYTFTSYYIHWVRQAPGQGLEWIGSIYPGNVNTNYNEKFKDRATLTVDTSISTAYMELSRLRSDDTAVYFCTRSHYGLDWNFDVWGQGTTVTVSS
T1 sequence (VL, as listed by the source, chain 2 of 2): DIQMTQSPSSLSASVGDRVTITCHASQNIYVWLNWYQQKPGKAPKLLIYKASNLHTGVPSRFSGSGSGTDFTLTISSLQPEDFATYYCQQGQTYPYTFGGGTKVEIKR
assay-metric: Anti-CD28 Fab signal
Form: value (number only, do not type unit).

The following binders have reported results that may help.
Recorded Anti-CD28 Fab signal of YCDGHQPEYMAKCL [Phage-187] , please.
2.14

Next binder up: YCDGHSDEYMAKCL [Phage-185]
2.14

Same question, YCEGHAPEYMMKCI [Phage-224] this time
2.06

Further cases:
Bench note: what Anti-CD28 Fab signal did YCDGHAPQYMLKCL [Phage-194] show?
2.12

Repeat with YCEGHSPQYMQKCL [Phage-202]
2.1

Please do the same for YCDGHMPEYIAKCL [Phage-154] as well.
2.19

Follow-up item: YCDGHLPIYMTQCL [Phage-271]
1.97

Further, for YCDGHLIEYMYKCL [Phage-278] ?
1.95
